The reported numbers originate from patent US5358951A.

Tested on: vasopressor response of angiotensin II
experimentalDetails: AII Challenge: antagonism of angiotensin II vasopressor response
Format: in vivo
assaySetup: Rattus norvegicus, iv, 2 h, 1 mg/kg i.v.; AII 0.05 mcg/kg IV; 120 min post dose
Experimental: Conscious Male Okamoto-Aoki SHR, 16-20 weeks old, weighing approximately 330 g are purchased from Charles River Labs (Wilmington, Mass.). Conscious rats are restrained in a supine position with elastic tape. The area at the base of the tail is locally anesthetized by subcutaneous infiltration with 2% procaine. […] The cannula is attached to a Statham P23 Db pressure transducer, and pulsatile blood pressure is recorded to 10-15 minutes with a Gould Brush recorder. […]
Structures can show the parent of a compound that is named as a salt.
Parameter inhibition in vivo at 1 mg/kg: see the listing below.
Respond numerically; units are % and should not be typed.

See these solved cases before continuing.
CCCCc1nc2ccc(C3(C(=O)OC)CC4CCCN4O3)cc2c(=O)n1Cc1ccc(-c2ccccc2-c2nnn[nH]2)cc1 (mixture of isomers) [Example 78] = 60
CCCCc1nc2ccc(C3(CO)CC4CCCN4O3)cc2c(=O)n1Cc1ccc(-c2ccccc2-c2nnn[nH]2)cc1 (stereo not shown) [Example 80] = 76
CCCCc1nc2ccc([C@]3(CC)C[C@@H]4CCCN4O3)cc2c(=O)n1Cc1ccc(-c2ccccc2-c2nnn[nH]2)cc1 (relative stereo) [Example 72] = 55
CCCCc1nc2ccc([C@@]3(CC)C[C@@H]4CCCN4O3)cc2c(=O)n1Cc1ccc(-c2ccccc2-c2nnn[nH]2)cc1 (relative stereo) [Example 71] = 65
CCCCc1nc2ccc([C@@]3(C)C[C@@H]4CCCN4O3)cc2c(=O)n1Cc1ccc(-c2ccccc2-c2nnn[nH]2)cc1 (relative stereo) [Example 73, sodium salt] = 83

Param readout= inhibition in vivo at 1 mg/kg; system= vasopressor response of angiotensin II; entry= CCCCc1nc2ccc([C@@]3(C)C[C@@H]4CCC(C)(C)N4O3)cc2c(=O)n1Cc1ccc(-c2ccccc2-c2nnn[nH]2)cc1 (relative stereo) [Example 66] ; returns value.
69

Then what about the molecule CCCCc1nc2ccc([C@@]3(c4ccccc4)C[C@@H]4CCCN4O3)cc2c(=O)n1Cc1ccc(-c2ccccc2-c2nnn[nH]2)cc1 (relative stereo) [Example 70] ?
56

* * *

Test system: vasopressor response of angiotensin II
experimentalDetails: AII Challenge: antagonism of angiotensin II vasopressor response;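 as to Response Average Change: post-dose Angiotensin II-evoked rise in systolic blood pressure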
Assay type: in vivo
assaySetup: 1 mg/kg i.v.; AII 0.1 mcg/kg IV; 60 min post dose
measuredParameter: Response Average Change (mmHg)
Respond numerically; units are mmHg and should not be typed.

Data request, read-out Response Average Change, for CCCCc1nc2ccc(C3(C(=O)OC)CC4CCCN4O3)cc2c(=O)n1Cc1ccc(-c2ccccc2-c2nnn[nH]2)cc1 (mixture of isomers)
12.5

Then what about the compound CCCCc1nc2ccc(C3(CO)CC4CCCN4O3)cc2c(=O)n1Cc1ccc(-c2ccccc2-c2nnn[nH]2)cc1 (stereo not drawn) ?
10

Then what about the compound CCCCc1nc2ccc([C@]3(CC)C[C@@H]4CCCN4O3)cc2c(=O)n1Cc1ccc(-c2ccccc2-c2nnn[nH]2)cc1 (relative stereo) ?
17.5

Then what about the compound CCCCc1nc2ccc([C@@]3(C)C[C@@H]4CCC(C)(C)N4O3)cc2c(=O)n1Cc1ccc(-c2ccccc2-c2nnn[nH]2)cc1 (relative stereo) ?
2.5

Then what about the compound CCCCc1nc2ccc([C@@]3(CC)C[C@@H]4CCCN4O3)cc2c(=O)n1Cc1ccc(-c2ccccc2-c2nnn[nH]2)cc1 (relative stereo) ?
15

Then what about the compound CCCCc1nc2ccc([C@@]3(c4ccccc4)C[C@@H]4CCCN4O3)cc2c(=O)n1Cc1ccc(-c2ccccc2-c2nnn[nH]2)cc1 (relative stereo) ?
17.5

* * *

System: vasopressor response of angiotensin II
experimentalDetails: AII Challenge: antagonism of angiotensin II vasopressor response
Type: in vivo
assaySetup: Rattus norvegicus, iv, […], 3 mg/kg I.V.; AII 0.05 mcg/kg IV; 90 min post dose
Parameter inhibition in vivo at 3 mg/kg: see the listing below.
Form field: result (number plus unit)

CCCCc1nc2ccc([C@]3(C)C[C@@H]4CCCCN4O3)cc2c(=O)n1Cc1ccc(-c2ccccc2-c2nnn[nH]2)cc1 (relative stereo) = 85%

Data request, read-out inhibition in vivo at 3 mg/kg, for CCCCc1nc2ccc([C@@H]3C[C@H]4CCCCN4O3)cc2c(=O)n1Cc1ccc(-c2ccccc2-c2nnn[nH]2)cc1 (relative stereo)
73%

Then what about the molecule CCCCc1nc2ccc([C@]3(C)C[C@@H]4CCC(C)(C)N4O3)cc2c(=O)n1Cc1ccc(-c2ccccc2-c2nnn[nH]2)cc1 (relative stereo) ?
92%

Then what about the molecule CCCCc1nc2ccc([C@@]3(C)C[C@@H]4CCCCN4O3)cc2c(=O)n1Cc1ccc(-c2ccccc2-c2nnn[nH]2)cc1 (relative stereo) ?
85%

Then what about the molecule CCCCc1nc2ccc([C@@]3(C)C[C@@H]4CCCN4O3)cc2c(=O)n1Cc1ccc(-c2ccccc2-c2nnn[nH]2)cc1 (relative stereo) ?
94%

Then what about the molecule CCCCc1nc2ccc(C3ON4CCCC4C3C(=O)OCC)cc2c(=O)n1Cc1ccc(-c2ccccc2-c2nnn[nH]2)cc1 (stereo not drawn) ?
15%

Then what about the molecule CCCCc1nc2ccc([C@@H]3C[C@H]4CCCN4O3)cc2c(=O)n1Cc1ccc(-c2ccccc2-c2nnn[nH]2)cc1 (racemic) ?
47%

Then what about the molecule CCCCc1nc2ccc([C@@H]3C[C@H]4CCC(C)(C)N4O3)cc2c(=O)n1Cc1ccc(-c2ccccc2-c2nnn[nH]2)cc1 (relative stereo) ?
87%

Then what about the molecule CCCCc1nc2ccc(C3(C)CC4c5ccccc5CCN4O3)cc2c(=O)n1Cc1ccc(-c2ccccc2-c2nnn[nH]2)cc1 (stereo not drawn) ?
79%

Then what about the molecule CCCCc1nc2ccc([C@]3(C)C[C@@H]4CCCN4O3)cc2c(=O)n1Cc1ccc(-c2ccccc2-c2nnn[nH]2)cc1 (relative stereo) ?
46%

Then what about the molecule CCCCc1nc2ccc([C@H]3C[C@]4(C)CCCCN4O3)cc2c(=O)n1Cc1ccc(-c2ccccc2-c2nnn[nH]2)cc1 (relative stereo) ?
76%

Then what about the molecule CCCCc1nc2ccc([C@@H]3C[C@H]4c5ccccc5CCN4O3)cc2c(=O)n1Cc1ccc(-c2ccccc2-c2nnn[nH]2)cc1 (relative stereo) ?
71%

* * *

Tested on: vasopressor response of angiotensin II
experimentalDetails: AII Challenge: antagonism of angiotensin II vasopressor response;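 as to Response Average Change: post-dose Angiotensin II-evoked rise in systolic blood pressure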
Assay type: in vivo
assaySetup: 1 mg/kg i.v.; AII 0.05 mcg/kg IV; 30 min post dose
measuredParameter: Response Average Change
Form field: result (number plus unit)

Data request, read-out Response Average Change, for CCCCc1nc2ccc(C3(CO)CC4CCCN4O3)cc2c(=O)n1Cc1ccc(-c2ccccc2-c2nnn[nH]2)cc1 (stereo not drawn) [Example 80]
5 mmHg

Then what about the molecule CCCCc1nc2ccc([C@]3(CC)C[C@@H]4CCCN4O3)cc2c(=O)n1Cc1ccc(-c2ccccc2-c2nnn[nH]2)cc1 (relative stereo) [Example 72] ?
20 mmHg

Then what about the molecule CCCCc1nc2ccc([C@@]3(CC)C[C@@H]4CCCN4O3)cc2c(=O)n1Cc1ccc(-c2ccccc2-c2nnn[nH]2)cc1 (relative stereo) [Example 71] ?
20 mmHg

Then what about the molecule CCCCc1nc2ccc([C@@]3(c4ccccc4)C[C@@H]4CCCN4O3)cc2c(=O)n1Cc1ccc(-c2ccccc2-c2nnn[nH]2)cc1 (relative stereo) [Example 70] ?
23.5 mmHg

Then what about the molecule CCCCc1nc2ccc(C3(C(=O)OC)CC4CCCN4O3)cc2c(=O)n1Cc1ccc(-c2ccccc2-c2nnn[nH]2)cc1 (mixture of isomers) [Example 78] ?
5 mmHg

Then what about the molecule CCCCc1nc2ccc([C@@]3(C)C[C@@H]4CCC(C)(C)N4O3)cc2c(=O)n1Cc1ccc(-c2ccccc2-c2nnn[nH]2)cc1 (relative stereo) [Example 66] ?
2.5 mmHg

* * *

System: vasopressor response of angiotensin II
experimentalDetails: AII Challenge: antagonism of angiotensin II vasopressor response
Type: in vivo
assaySetup: Rattus norvegicus, po, 4 h, 5 mg/kg P.O.; AII 0.1 mcg/kg IV; 240 min post dose
Parameter inhibition in vivo at 5 mg/kg: see the listing below.
Respond numerically; units are % and should not be typed.

CCCCc1nc2ccc([C@@H]3C[C@H]4CCCN4O3)cc2c(=O)n1Cc1ccc(-c2ccccc2-c2nnn[nH]2)cc1 (racemic) = 6
CCCCc1nc2ccc([C@@]3(C)C[C@@H]4CCC(C)(C)N4O3)cc2c(=O)n1Cc1ccc(-c2ccccc2-c2nnn[nH]2)cc1 (relative stereo) = 77
CCCCc1nc2ccc(C3ON4CCCC4C3C(=O)OCC)cc2c(=O)n1Cc1ccc(-c2ccccc2-c2nnn[nH]2)cc1 (stereo not shown) = -20

Shifting focus to the compound that follows.
Data request, read-out inhibition in vivo at 5 mg/kg, for CCCCc1nc2ccc([C@]3(C)C[C@@H]4CCCN4O3)cc2c(=O)n1Cc1ccc(-c2ccccc2-c2nnn[nH]2)cc1 (relative stereo)
77
